- assay system: GST-SBP-SLBP (stem-loop binding protein) (Homo sapiens, UniProt Q14493 1-270)
- protocol description: targeted RNA Bind-n-Seq; RBNS binding buffer: 25 mM Tris pH 7.5, 150 mM KCl, 3 mM MgCl2, 0.1% Tween, 0.5 mg/mL BSA, 1 mM DTT; 27 nM protein, 750 pM RNA pool; temperature not stated; high values mean tight binding
- measurement context: protein: recombinant; tags: N-terminal GST and SBP (pGEX6P1-SBP)
Note to self: use 1.0 only for binding signal readings below 3 log2 fold change; a reading exactly at 3 log2 fold change still gets 0.0.

| binder | label |
| --- | --- |
| consensus (structured_RNA) RNA: GGUCACGUCUCAAUCAACUCCCAAAGGCUCUUCUGAGGGCCACCCAUCAACAGCUCGCAGUCAAG | 1.0 |
| consensus (structured_RNA) RNA: GGUCACGUCUCAAUCAACUCCCAAAGGUCUUUUUUAAGACCACCCAUCAACAGCUCGCAGUCAAG | 0.0 |
| consensus (structured_RNA) RNA: GGUCACGUCUCAAUCAACUCCCAAAGGUUCUUCUAAGGACCACCCAUCAACAGCUCGCAGUCAAG | 1.0 |
| consensus (structured_RNA) RNA: GGUCACGUCUCAAUCAACUCCCAAAGGUCCUUCUUAGGGCCACCCAUCAACAGCUCGCAGUCAAG | 1.0 |
| consensus (structured_RNA) RNA: GGUCACGUCUCAAUCAACUCCCAAAGGUUUUUCUUAAAGCCACCCAUCAACAGCUCGCAGUCAAG | 1.0 |
| consensus (structured_RNA) RNA: GGUCACGUCUCAAUCAACUCCCAAAGGCCUUUCUCAAGGCCACCCAUCAACAGCUCGCAGUCAAG | 0.0 |
| consensus (structured_RNA) RNA: GGUCACGUCUCAAUCAACUCCCAAAGGCCCUUUUCAGGGCCACCCAUCAACAGCUCGCAGUCAAG | 0.0 |
| consensus (structured_RNA) RNA: GGUCACGUCUCAAUCAACUCCCAAAGGUUUUUUUUAAAGCCACCCAUCAACAGCUCGCAGUCAAG | 1.0 |
| consensus (structured_RNA) RNA: GGUCACGUCUCAAUCAACUCCCAAAGGCUUUUCUCAGAGCCACCCAUCAACAGCUCGCAGUCAAG | 1.0 |
| consensus (structured_RNA) RNA: GGUCACGUCUCAAUCAACUCCCAAAGGCCUUUUUGAGGGCCACCCAUCAACAGCUCGCAGUCAAG | 1.0 |

Cited source for all entries: paper PMC5892938
